// reported OD450 nm for each item listed
- TESTED_ON: monkey GPC3-His protein (monkey)
- MEASUREMENT_NOTES: ELISA, monkey GPC3-His coated; antibody 2.67 nM
The reply should be a number, written without any unit.

hAb003LH2L1 (antibody, human IgG1, V domains shown) VH: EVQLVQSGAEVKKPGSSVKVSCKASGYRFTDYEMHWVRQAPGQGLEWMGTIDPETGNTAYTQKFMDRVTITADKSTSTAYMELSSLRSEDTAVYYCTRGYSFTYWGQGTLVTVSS VL: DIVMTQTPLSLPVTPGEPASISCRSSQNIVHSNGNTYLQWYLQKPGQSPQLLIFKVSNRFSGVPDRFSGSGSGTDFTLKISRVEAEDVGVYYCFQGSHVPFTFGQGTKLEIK :: 2.57
hAb007LH3L1 (antibody, human IgG1, V domains shown) VH: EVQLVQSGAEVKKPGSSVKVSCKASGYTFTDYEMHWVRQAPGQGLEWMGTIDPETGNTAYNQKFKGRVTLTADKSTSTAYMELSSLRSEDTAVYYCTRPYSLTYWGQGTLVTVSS VL: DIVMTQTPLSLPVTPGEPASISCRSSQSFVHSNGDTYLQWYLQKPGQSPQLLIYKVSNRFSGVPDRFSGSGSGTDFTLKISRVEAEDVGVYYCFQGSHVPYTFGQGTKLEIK :: 2.39
hAb005LH2L1 (antibody, human IgG1, V domains shown) VH: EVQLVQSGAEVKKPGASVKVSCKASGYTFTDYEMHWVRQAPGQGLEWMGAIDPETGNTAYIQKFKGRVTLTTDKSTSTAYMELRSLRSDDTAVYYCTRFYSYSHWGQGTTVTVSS VL: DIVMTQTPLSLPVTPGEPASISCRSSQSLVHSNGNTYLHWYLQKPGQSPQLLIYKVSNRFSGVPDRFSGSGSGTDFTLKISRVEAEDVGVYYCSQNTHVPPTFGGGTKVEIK :: 1.24
hAb007LH1L1b (antibody, human IgG1, V domains shown) VH: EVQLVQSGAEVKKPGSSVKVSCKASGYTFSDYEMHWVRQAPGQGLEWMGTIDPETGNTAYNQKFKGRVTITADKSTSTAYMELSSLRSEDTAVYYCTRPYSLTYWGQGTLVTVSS VL: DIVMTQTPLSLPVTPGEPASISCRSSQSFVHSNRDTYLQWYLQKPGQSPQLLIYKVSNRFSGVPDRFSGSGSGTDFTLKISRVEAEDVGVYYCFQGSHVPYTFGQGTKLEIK :: 2.39
hAb003LH3L1b (antibody, human IgG1, V domains shown) VH: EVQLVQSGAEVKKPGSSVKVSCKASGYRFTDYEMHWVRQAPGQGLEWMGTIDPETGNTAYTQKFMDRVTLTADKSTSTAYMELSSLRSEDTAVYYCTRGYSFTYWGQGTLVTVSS VL: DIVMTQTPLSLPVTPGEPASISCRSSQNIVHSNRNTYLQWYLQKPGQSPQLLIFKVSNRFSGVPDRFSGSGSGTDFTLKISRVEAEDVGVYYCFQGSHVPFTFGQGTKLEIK :: 2.4

[in] Fill in: OD450 nm of hAb007LH3L1a (antibody, human IgG1, V domains shown) VH: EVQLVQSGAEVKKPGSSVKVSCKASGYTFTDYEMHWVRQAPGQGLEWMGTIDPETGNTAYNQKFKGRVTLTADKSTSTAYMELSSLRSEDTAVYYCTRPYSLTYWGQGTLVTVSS VL: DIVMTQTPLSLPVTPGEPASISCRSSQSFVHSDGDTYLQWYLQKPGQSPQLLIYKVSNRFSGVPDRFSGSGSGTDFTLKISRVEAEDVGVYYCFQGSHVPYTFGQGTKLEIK is ___
[out] 1.89

[in] Field request: OD450 nm | item: hAb003LH2L1a (antibody, human IgG1, V domains shown) VH: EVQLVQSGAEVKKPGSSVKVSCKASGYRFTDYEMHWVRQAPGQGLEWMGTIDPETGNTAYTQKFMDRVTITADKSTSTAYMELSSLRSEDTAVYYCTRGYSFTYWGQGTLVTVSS VL: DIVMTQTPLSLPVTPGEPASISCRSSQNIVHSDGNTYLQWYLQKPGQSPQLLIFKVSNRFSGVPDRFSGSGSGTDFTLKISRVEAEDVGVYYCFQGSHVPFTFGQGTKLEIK
[out] 2.17

[in] Which OD450 nm is listed for hAb006LH1L1a (antibody, human IgG1, V domains shown) VH: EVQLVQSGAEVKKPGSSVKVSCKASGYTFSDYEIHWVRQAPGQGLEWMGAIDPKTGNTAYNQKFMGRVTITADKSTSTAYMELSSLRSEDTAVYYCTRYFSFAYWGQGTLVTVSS VL: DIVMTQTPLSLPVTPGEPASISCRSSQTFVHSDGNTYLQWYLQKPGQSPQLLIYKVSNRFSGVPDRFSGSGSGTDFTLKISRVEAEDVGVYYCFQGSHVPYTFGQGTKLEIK ?
[out] 1.63

[in] Looking for the measured OD450 nm of hAb005LH3L1 (antibody, human IgG1, V domains shown) VH: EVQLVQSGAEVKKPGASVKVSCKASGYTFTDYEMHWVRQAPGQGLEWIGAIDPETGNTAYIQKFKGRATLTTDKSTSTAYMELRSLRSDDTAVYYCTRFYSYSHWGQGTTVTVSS VL: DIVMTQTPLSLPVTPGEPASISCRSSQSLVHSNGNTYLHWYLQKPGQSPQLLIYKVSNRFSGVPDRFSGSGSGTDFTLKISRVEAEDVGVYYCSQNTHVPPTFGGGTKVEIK , can you help?
[out] 1.27

[in] I'd like to know its OD450 nm. The binder in question is hAb003LH1L1 (antibody, human IgG1, V domains shown) VH: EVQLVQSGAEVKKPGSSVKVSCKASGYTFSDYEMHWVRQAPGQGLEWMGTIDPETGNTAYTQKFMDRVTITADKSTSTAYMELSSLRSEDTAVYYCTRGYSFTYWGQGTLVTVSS VL: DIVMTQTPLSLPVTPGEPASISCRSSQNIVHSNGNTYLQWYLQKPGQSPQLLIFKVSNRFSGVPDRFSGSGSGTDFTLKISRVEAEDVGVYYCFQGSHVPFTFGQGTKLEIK
[out] 2.58
